# STUDY_SYSTEM: GDP-loaded K-Ras (1-169) C51S, C80L, C118S (Homo sapiens, UniProt P01116, C118S/C51S/C80L)
# Construct: GDP-loaded K-Ras (1-169) C51S, C80L, C118S
# ASSAY_EXPLANATION: K-Ras WT (GDP) cross-linking assay (conjugate formation, TOF mass spectrometry)
# Type: binding
# TEST_CONTEXT: Table 4; percent covalently modified K-Ras by MS; room temperature; typical compound conc. 2, 10, 25 μM, endpoints 1 and 24 h
METRIC_NAME: WT x-linking (%)

For orientation, consider the following solved cases.
>  <COMPOUND>
Cc1cccc2cccc(N3CCc4c(nc(OC[C@@H]5CCCN5C)nc4N4CCC(N=C=NCc5ccc(Cl)cc5)CC4)C3)c12 [Example 49]

>  <REPORTED_RESULT>
+ (0 < x ≤ 20)

$$$$
>  <COMPOUND>
COc1ccc(CN=C=NCCCN(C)c2nc(=O)n(-c3c(C)ccnc3C(C)C)c3nc(-c4ccccc4F)c(F)cc23)cc1 [Example 58]

>  <REPORTED_RESULT>
+ (0 < x ≤ 20)

$$$$
>  <COMPOUND>
O=C(NCCCl)NCCNc1ncnc2c(F)c(-c3ccccc3F)c(Cl)cc12 [Example 12]

>  <REPORTED_RESULT>
0

$$$$
>  <COMPOUND>
CC(=O)N1CC1C(=O)N1CCN(c2nc(OC[C@@H]3CCCN3C)nc3c2CCN(c2cccc4cccc(C)c24)C3)CC1 (stereo partly shown) [Example 47]

>  <REPORTED_RESULT>
+ (0 < x ≤ 20)

$$$$
>  <COMPOUND>
OB(O)C1CCN(c2ncnc3c(F)c(-c4ccccc4F)c(Cl)cc23)CC1 [Example 19]

>  <REPORTED_RESULT>
0

$$$$

# next compound below
Check the records and state WT x-linking (%) for Cc1cccc2cccc(N3CCc4c(nc(OC[C@@H]5CCCN5C)nc4N4CCC(N=C=Nc5ccccc5)CC4)C3)c12 [Example 48]
+ (0 < x ≤ 20)
